Test: estimated solubility by adding test solvent in aliquots to weighed solid, visual inspection
Format: physicochemical
Details: aqueous with cosolvent or surfactant or cyclodextrin, thermodynamic from solid; methanol/H2O (50/50), aw 0.75; at 60° C.; read-out: Solubility
measured-endpoint: solubility

-- ask For CN1CCN([C@@H]2CCCN(c3cnc(C(N)=O)c(Nc4ccc(C5CCN(CC6CCN(c7ccc(C(=O)N[C@H]8CCC(=O)NC8=O)nc7)CC6)CC5)cc4)n3)C2)C1=O [free base compound of Formula (I)] , what is its reported solubility?
-- reply < 2000 µg/mL

---

Experiment: estimated solubility by adding test solvent in aliquots to weighed solid, visual inspection
Type: physicochemical
Details: organic solvent or mixture, thermodynamic from solid; acetonitrile (ACN); at 60° C.; read-out: Solubility
Protocol: Solubilities of the compound of Formula (I), free base, in a few solvents were estimated. The experiments were carried out by adding the test solvent in aliquots to weighed portions of solid. […] Solubility numbers were calculated by dividing the weight of the sample by total amount of solvent used to dissolve the sample. The actual solubilities may be greater than the numbers calculated because of the use of solvent aliquots that were too large or because of slow dissolution rates. […]
measured-endpoint: solubility

-- ask For CN1CCN([C@@H]2CCCN(c3cnc(C(N)=O)c(Nc4ccc(C5CCN(CC6CCN(c7ccc(C(=O)N[C@H]8CCC(=O)NC8=O)nc7)CC6)CC5)cc4)n3)C2)C1=O.O=C(O)/C=C/C(=O)O [Fumarate Salt Form A] , what is its reported solubility?
-- reply < 1000 µg/mL

---

Experiment: initial physical stability evaluation at various relative humidity, room temperature, ~1 week (XRPD, Karl Fischer)
Format: physicochemical
Details: RT, 97% RH
Experimental: In another one or more examples, Karl Fischer titrations (water content analysis) for fumarate salt(s) (e.g., Fumarate Salt Form A) were carried out using a Mettler-Toledo C20 Coulometric KF titrator. The instrument was calibrated using a Hydranal water standard containing 1% water. The titrant was a Hydranal methanol solution. For initial physical stability evaluation, Fumarate Salt Form A was stored at various relative humidity conditions and room temperature for approximately 1 week (Table 14). […]
measured-endpoint: KF-Oven water

-- ask For CN1CCN([C@@H]2CCCN(c3cnc(C(N)=O)c(Nc4ccc(C5CCN(CC6CCN(c7ccc(C(=O)N[C@H]8CCC(=O)NC8=O)nc7)CC6)CC5)cc4)n3)C2)C1=O.O=C(O)/C=C/C(=O)O [Fumarate Salt Form A] , what is its reported KF-Oven water?
-- reply ~2.1 mol/mol

---

Experiment: estimated solubility by adding test solvent in aliquots to weighed solid, visual inspection
Type: physicochemical
Conditions: organic solvent or mixture, thermodynamic from solid; methyl acetate (MeOAc); at 60° C.; read-out: Solubility
measured-endpoint: solubility

-- ask For CN1CCN([C@@H]2CCCN(c3cnc(C(N)=O)c(Nc4ccc(C5CCN(CC6CCN(c7ccc(C(=O)N[C@H]8CCC(=O)NC8=O)nc7)CC6)CC5)cc4)n3)C2)C1=O [free base compound of Formula (I)] , what is its reported solubility?
-- reply < 1000 µg/mL

---

Assay: pKa (base) of the free base compound of Formula (I)
Assay type: physicochemical
measured-endpoint: pKa

-- ask For CN1CCN([C@@H]2CCCN(c3cnc(C(N)=O)c(Nc4ccc(C5CCN(CC6CCN(c7ccc(C(=O)N[C@H]8CCC(=O)NC8=O)nc7)CC6)CC5)cc4)n3)C2)C1=O [free base compound of Formula (I)] , what is its reported pKa?
-- reply ~6.5

---

Experiment: estimated solubility by adding test solvent in aliquots to weighed solid, visual inspection
Assay type: physicochemical
Details: thermodynamic from solid; water; solubility without temperature; read-out: Solubility
Protocol: Solubilities of the compound of Formula (I), free base, in a few solvents were estimated. The experiments were carried out by adding the test solvent in aliquots to weighed portions of solid. […] Solubility numbers were calculated by dividing the weight of the sample by total amount of solvent used to dissolve the sample. The actual solubilities may be greater than the numbers calculated because of the use of solvent aliquots that were too large or because of slow dissolution rates. […]
measured-endpoint: solubility

-- ask For CN1CCN([C@@H]2CCCN(c3cnc(C(N)=O)c(Nc4ccc(C5CCN(CC6CCN(c7ccc(C(=O)N[C@H]8CCC(=O)NC8=O)nc7)CC6)CC5)cc4)n3)C2)C1=O [free base compound of Formula (I)] , what is its reported solubility?
-- reply < 1000 µg/mL

---

Assay: estimated solubility by adding test solvent in aliquots to weighed solid, visual inspection
Format: physicochemical
Conditions: aqueous with cosolvent or surfactant or cyclodextrin, thermodynamic from solid; 1,4-dioxane/H2O (60/40), aw 1.0; at 60° C.; read-out: Solubility
measured-endpoint: solubility (µg/mL)
Report the value in µg/mL with no unit label.

-- ask For CN1CCN([C@@H]2CCCN(c3cnc(C(N)=O)c(Nc4ccc(C5CCN(CC6CCN(c7ccc(C(=O)N[C@H]8CCC(=O)NC8=O)nc7)CC6)CC5)cc4)n3)C2)C1=O [free base compound of Formula (I)] , what is its reported solubility?
-- reply 2000

---

Test: estimated solubility by adding test solvent in aliquots to weighed solid, visual inspection
Type: physicochemical
Conditions: aqueous with cosolvent or surfactant or cyclodextrin, thermodynamic from solid; ethanol/H2O (70/30), aw 0.8; solubility without temperature; read-out: Solubility
measured-endpoint: solubility (µg/mL)
Report the value in µg/mL with no unit label.

-- ask For CN1CCN([C@@H]2CCCN(c3cnc(C(N)=O)c(Nc4ccc(C5CCN(CC6CCN(c7ccc(C(=O)N[C@H]8CCC(=O)NC8=O)nc7)CC6)CC5)cc4)n3)C2)C1=O.O=C(O)/C=C/C(=O)O [Fumarate Salt Form A] , what is its reported solubility?
-- reply 4000

---

Assay: estimated solubility by adding test solvent in aliquots to weighed solid, visual inspection
Type: physicochemical
Conditions: organic solvent or mixture, thermodynamic from solid; methanol (MeOH); solubility without temperature; read-out: Solubility
measured-endpoint: solubility

-- ask For CN1CCN([C@@H]2CCCN(c3cnc(C(N)=O)c(Nc4ccc(C5CCN(CC6CCN(c7ccc(C(=O)N[C@H]8CCC(=O)NC8=O)nc7)CC6)CC5)cc4)n3)C2)C1=O [free base compound of Formula (I)] , what is its reported solubility?
-- reply < 1000 µg/mL

---

Experiment: estimated solubility by adding test solvent in aliquots to weighed solid, visual inspection
Type: physicochemical
Details: organic solvent or mixture, thermodynamic from solid; dimethylsulfoxide (DMSO); solubility without temperature; read-out: Solubility
measured-endpoint: solubility (µg/mL)
Report the value in µg/mL with no unit label.

-- ask For CN1CCN([C@@H]2CCCN(c3cnc(C(N)=O)c(Nc4ccc(C5CCN(CC6CCN(c7ccc(C(=O)N[C@H]8CCC(=O)NC8=O)nc7)CC6)CC5)cc4)n3)C2)C1=O [free base compound of Formula (I)] , what is its reported solubility?
-- reply 9000

---

Experiment: estimated solubility by adding test solvent in aliquots to weighed solid, visual inspection
Assay type: physicochemical
Conditions: organic solvent or mixture, thermodynamic from solid; tetrahydrofuran (THF); solubility without temperature; read-out: Solubility
Method: Solubilities of the compound of Formula (I), free base, in a few solvents were estimated. The experiments were carried out by adding the test solvent in aliquots to weighed portions of solid. […] Solubility numbers were calculated by dividing the weight of the sample by total amount of solvent used to dissolve the sample. The actual solubilities may be greater than the numbers calculated because of the use of solvent aliquots that were too large or because of slow dissolution rates. […]
measured-endpoint: solubility (µg/mL)
Report the value in µg/mL with no unit label.

-- ask For CN1CCN([C@@H]2CCCN(c3cnc(C(N)=O)c(Nc4ccc(C5CCN(CC6CCN(c7ccc(C(=O)N[C@H]8CCC(=O)NC8=O)nc7)CC6)CC5)cc4)n3)C2)C1=O [free base compound of Formula (I)] , what is its reported solubility?
-- reply 9000

---

Assay: estimated solubility by adding test solvent in aliquots to weighed solid, visual inspection
Format: physicochemical
Conditions: organic solvent or mixture, thermodynamic from solid; acetone; solubility without temperature; read-out: Solubility
measured-endpoint: solubility

-- ask For CN1CCN([C@@H]2CCCN(c3cnc(C(N)=O)c(Nc4ccc(C5CCN(CC6CCN(c7ccc(C(=O)N[C@H]8CCC(=O)NC8=O)nc7)CC6)CC5)cc4)n3)C2)C1=O [free base compound of Formula (I)] , what is its reported solubility?
-- reply < 1 mg/mL

---

Experiment: estimated solubility by adding test solvent in aliquots to weighed solid, visual inspection
Type: physicochemical
Settings: aqueous with cosolvent or surfactant or cyclodextrin, thermodynamic from solid; tetrahydrofuran/H2O (80/20), aw 1; solubility without temperature; read-out: Solubility
Experimental: Solubilities of the compound of Formula (I), free base, in a few solvents were estimated. The experiments were carried out by adding the test solvent in aliquots to weighed portions of solid. […] Solubility numbers were calculated by dividing the weight of the sample by total amount of solvent used to dissolve the sample. The actual solubilities may be greater than the numbers calculated because of the use of solvent aliquots that were too large or because of slow dissolution rates. […]
measured-endpoint: solubility

-- ask For CN1CCN([C@@H]2CCCN(c3cnc(C(N)=O)c(Nc4ccc(C5CCN(CC6CCN(c7ccc(C(=O)N[C@H]8CCC(=O)NC8=O)nc7)CC6)CC5)cc4)n3)C2)C1=O.O=C(O)/C=C/C(=O)O [Fumarate Salt Form A] , what is its reported solubility?
-- reply > 9000 µg/mL
